target: haematopoietic prostaglandin D synthase (H-PGDS) (Homo sapiens); construct: Full length human H-PGDS cDNA (Invitrogen Ultimate ORF 10H13026) was amplified by PCR; 6-His (N); TEV protease cleavage site (N); made in house; host or cells: E. coli BL21 (DE3*), vector pET22b+; experiment: H-PGDS RapidFire high throughput mass spectrometry assay (conversion of PGH2 to PGD2); assay type: biochemical; details: 10 nM H-PGDS, PGH2 formed in situ by COX-2 from arachidonic acid; read-out: Potency Range (mean pIC50) (converted)
Sequence (O60760 whole entry): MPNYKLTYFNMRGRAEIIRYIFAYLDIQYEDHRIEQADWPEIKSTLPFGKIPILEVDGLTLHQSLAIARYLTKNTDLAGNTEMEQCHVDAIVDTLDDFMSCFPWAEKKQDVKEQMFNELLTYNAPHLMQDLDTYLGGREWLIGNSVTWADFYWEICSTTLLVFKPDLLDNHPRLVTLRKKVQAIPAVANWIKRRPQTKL
IC50 for assorted compounds

Previously resolved entries follow.
In [3]: df
Out[3]:
                                   compound  readoutname     assayresult
0  CCOC(=O)Cc1csc(NC(=O)[C@H]2C[C@H](Oc3cccc4ccoc34)C2)n1 [Example 262]         IC50   10 to 79.4 nM
1  O=C(Nc1nccs1)[C@H]1C[C@H](Oc2cccc3cccnc23)C1 [Example 184]         IC50         < 10 nM
2  CC(C)(O)c1cnc(NC(=O)[C@H]2C[C@H](Oc3cccc4ccoc34)C2)s1 [Example 265]         IC50   10 to 79.4 nM
3  O=C(c1csc(NC(=O)[C@H]2C[C@H](Oc3cc(F)ccc3OC(F)F)C2)n1)C1CC1 [Example 32]         IC50         < 10 nM
4  COc1ccc(F)cc1O[C@H]1C[C@H](C(=O)NC2CN(c3cc(C#N)ccn3)C2)C1 [Example 149]         IC50         < 10 nM
5  CC(C)(O)CO[C@H]1CC[C@H](NC(=O)[C@H]2C[C@H](Oc3cccc4cccnc34)C2)CC1 [Example 220]         IC50  100 to 1000 nM
6  C=C(C)c1cnc(NC(=O)[C@H]2C[C@H](Oc3cccc4cccnc34)C2)s1 [Example 205]         IC50         < 10 nM

Turning to the following compound.
So what does the record say about IC50 for O=C1CC(NC(=O)[C@H]2C[C@H](Oc3cc(F)ccc3OC(F)F)C2)c2ccccc2N1 (mixture of isomers) [Example 25] ?
10 to 79.4 nM
